Biological target: T1, CRBN, Q96SW2;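 also: pooled lentiviral library of zinc finger degron-EGFP fusions in mCherry-positive Jurkat cells, FACS-sorted after compound exposure, with degron abundance counted by next-generation sequencing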
T1 chain: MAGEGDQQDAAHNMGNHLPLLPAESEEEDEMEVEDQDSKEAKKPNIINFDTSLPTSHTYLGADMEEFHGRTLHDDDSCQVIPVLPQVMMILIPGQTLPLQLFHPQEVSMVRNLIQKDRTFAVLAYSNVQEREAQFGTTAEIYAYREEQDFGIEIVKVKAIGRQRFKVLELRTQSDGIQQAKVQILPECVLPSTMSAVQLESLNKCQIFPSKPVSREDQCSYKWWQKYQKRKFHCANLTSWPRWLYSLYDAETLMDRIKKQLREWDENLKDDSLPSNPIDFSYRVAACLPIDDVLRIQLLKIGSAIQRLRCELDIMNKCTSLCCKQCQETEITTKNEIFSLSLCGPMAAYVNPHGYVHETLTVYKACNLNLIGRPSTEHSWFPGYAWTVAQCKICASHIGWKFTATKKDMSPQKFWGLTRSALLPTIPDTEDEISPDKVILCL
Test: log2 fold change of degron read counts, EGFP-low vs EGFP+ sorted cells (limma voom), compound-induced degradation; higher = more compound-induced degradation of the degron-EGFP fusion; degrons are variants of IKZF1/3 zinc finger 2; compound dose not given here
Details: Jurkat; 18 h; compound: thalidomide
The full ranking holds about 8,300 sequences; the median of “log2 fold change of degron read counts, EGFP-low vs EGFP+ sorted cells (limma voom), compound-induced degradation” is about -1.1, and the highest 2% start at about 3.2. What follows is part of a selection rich in the highest values, with near analogues and random picks from the rest.
Recorded log2 fold change of degron read counts values for a group of sequences are listed next.
OBSERVED_PROPERTY: log2 fold change of degron read counts

1. FDCNQCGRPFTQKGNLLRHIKL [46F_47D_49N_50Q_52G_53R_54P_55F_67L_, Q9UKT9] = -2.01
2. FQCDVCGAFFTQKGNLLRHIKL [46F_47Q_49D_50V_52G_53A_54F_55F_67L_, Q9UKT9] = 0.0287
3. FYCPICGHNFTQKGNLLRHIKL [46F_47Y_49P_50I_52G_53H_54N_55F_67L_, Q9UKT9] = -1.92
4. LECPICGFVCTQKGNLLRHIKL [46L_47E_49P_50I_52G_53F_54V_55C_67L_, Q9UKT9] = 2.84
5. LICPICGFQCTQKGNLLRHIKL [46L_47I_49P_50I_52G_53F_54Q_55C_67L_, Q9UKT9] = 2.94
6. FQCDQCGAWFTQKGNLLRHIKL [46F_47Q_49D_50Q_52G_53A_54W_55F_67L_, Q9UKT9] = -1.39
7. FHCPVCGADFTQKGNLLRHIKL [46F_47H_49P_50V_52G_53A_54D_55F_67L_, Q9UKT9] = -1.46
